test system: Mycobacterium tuberculosis; experiment: Antimicrobial activity against Mycobacterium tuberculosis H37Ra by microplate alamar blue assay; type: functional
Let's look at some molecules and their measured MIC.
assay_endpoint: MIC

molecule="NNC(=O)c1ccncc1 [ISONIAZID]" assay_endpoint=MIC reported_value="0.04 µg/mL"
molecule=OCCCCCCCCCCCCCC#CC#CCCCCc1ccco1 assay_endpoint=MIC reported_value="6.25 µg/mL"
molecule="NC[C@H]1O[C@H](O[C@H]2[C@H](O)[C@@H](O[C@H]3O[C@H](CO)[C@@H](O)[C@H](N)[C@H]3O)[C@H](N)C[C@@H]2N)[C@H](O)[C@@H](O)[C@@H]1O.O=S(=O)(O)O [KANAMYCIN SULFATE]" assay_endpoint=MIC reported_value="2 µg/mL"
molecule=COC(=O)CCCC#CCCCCCCCCCCCCCc1ccco1 assay_endpoint=MIC reported_value="3.1 µg/mL"

Just for reference, ChEMBL document CHEMBL1157224 is where these values come from.
